# PROTOCOL: BHET released, HPLC; higher = more BHET released; extreme values may be limits of the assay
# CONDITION_LABEL: PET substrate: cryPow; 70 °C; pH 6.5; 24 h
A collection of sequences and their measured BHET released
Expressed in mM, but write only the number.

QTNPYARGPNPTAASLEASAGPFTVRSFTVSRPSGYGAGTVYYPTNAGGTVGAIAIVPGYTARQSSIKWWGPRLASHGFVVITIDTNSTFDYPSSRSSQQMAALRQVASLNGDSSSPIYGKVDTARMGVMGHSMGGGASLRSAANNPSLKAAIPQAPWDSQTNFSSVTVPTLIFACENDSIAPVNSHALPIYDSMSRNAKQFLEINGGSHSCANSGNSNQALIGKKGVAWMKRFMDNDTRYSTFACENPNSTAVSDFRTANCS [DuraPETase] ... 0

Now look at this entry.
INPUT: Can you look up the measured BHET released of QDNPYERGPDPTEDSIEAIRGPFSVATERVSSFASGFGGGTIYYPRETDEGTFGAVAVAPGFTASQGSMSWYGERVASHGFIVFTIDTNTRLDAPGQRGRQLLAALDYLVERSDRKVRERLDPNRLAVMGHSMGGGGSLEATVMRPSLKASIPLTPWHLDKTWGQVQVPTFIIGAELDTIAPVSTHAKPFYESLPSSLPKAYMELCGATHFAPNIPNTTIAKYVISWLKRFVDEDTRYSQFLCPNPTDRAICEYRSTCPY [Cut190*SS] for me?
OUTPUT: 0

====

# PROTOCOL: PET hydrolysis product formed (TPA+MHET+BHET, UV-Vis) per mg enzyme (mmol/mg enzyme); higher = more PET depolymerisation activity; extreme values may be limits of the assay
# CONDITION_LABEL: PET substrate: aFilm; 70 °C; pH 5.5; 24 h
Some sequences, each annotated with its measured PET hydrolysis product formed.
Reply with just the number.

SNPYQRGPNPTRSALTADGPFSVATYTVSRLSVSGFGGGVIYYPTGTSLTFGGIAMSPGYTADASSLAWLGRRLASHGFVVLVINTNSRFDGPDSRASQLSAALNYLRTSSPSAVRARLDANRLAVAGHSMGGGGTLRIAEQNPSLKAAVPLTPWHTDKTFNTSVPVLIVGAEADTVAPVSQYAIPFYQNLPSTTPKVYVELCNASHIAPNSDNAAISVYTISWMKLWVDNDTRYRQFLCNVNDPALCDFRTNNRHCQ [LCC-A2] ... 0.181

INPUT: Which measured PET hydrolysis product formed value corresponds to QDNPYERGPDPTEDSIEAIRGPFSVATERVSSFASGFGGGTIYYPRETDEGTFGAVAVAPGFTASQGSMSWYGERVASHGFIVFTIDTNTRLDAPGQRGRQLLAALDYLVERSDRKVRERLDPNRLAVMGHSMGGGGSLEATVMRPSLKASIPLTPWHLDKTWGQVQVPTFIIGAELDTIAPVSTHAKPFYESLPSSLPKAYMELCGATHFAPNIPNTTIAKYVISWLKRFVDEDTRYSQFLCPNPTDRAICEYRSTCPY [Cut190*SS] ?
OUTPUT: 0

INPUT: Form field: reported PET hydrolysis product formed of ANPYERGPNPTDALLEARSGPFSVSEENVSRLSASGFGGGTIYYPRENNTYGAVAISPGYTGTEASIAWLGERIASHGFVVITIDTITTLDQPDSRAEQLNAALNHMINRASSTVRSRIDSSRLAVMGHSMGGGGSLRLASQRPDLKAAIPLTPWHLNKNWSSVTVPTLIIGADLDTIAPVATHAKPFYNSLPSSISKAYLELDGATHFAPNIPNKIIGKYSVAWLKRFVDNDTRYTQFLCPGPRDGLFGEVEEYRSTCPF [TfCut2]
OUTPUT: 0

====

# PROTOCOL: PET hydrolysis product formed (TPA+MHET+BHET, UV-Vis) per mg enzyme (mmol/mg enzyme); higher = more PET depolymerisation activity; extreme values may be limits of the assay
# CONDITION_LABEL: PET substrate: cryPow; 70 °C; pH 7.5; 24 h
QUANTITY: PET hydrolysis product formed
Respond using a number only.

INPUT: What does the record list as PET hydrolysis product formed for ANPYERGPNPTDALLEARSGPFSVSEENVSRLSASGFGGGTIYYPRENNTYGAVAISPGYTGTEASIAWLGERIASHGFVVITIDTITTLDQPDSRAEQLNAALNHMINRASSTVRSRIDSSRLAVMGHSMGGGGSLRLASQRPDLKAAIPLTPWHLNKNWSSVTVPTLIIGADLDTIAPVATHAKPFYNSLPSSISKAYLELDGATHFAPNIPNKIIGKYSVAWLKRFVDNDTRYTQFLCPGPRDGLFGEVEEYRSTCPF [TfCut2] ?
OUTPUT: 0

INPUT: What value of PET hydrolysis product formed has been recorded for this entry: SNPYQRGPNPTRSALTATGPFSVATYTVSRLLVSGFGGGVIYYPTGTSLTFGGIAMSPGYTADASSLAWLGRRLASHGFVVLVINTNSRFDGPDSRARQLSAALNYLRTSSPSAVRARLDANRLAVAGHSMGGGGTLRIAEQNPSLKAAVPLTPWHPDKTFNTSVPVLIVGAQADTVAPVSQHAIPFYQNLPSTTPKVYVELCNASHIAPNSPNAAISVYTISWMKLWVDNDTRYRQFLCNVNDPALCDFRTNNRHCQ [LCC-ICCG I6M]
OUTPUT: 0.122

INPUT: For SNPYQRGPNPTRSALTADGPFSVRTYTISRLSVSGFGGGVIYYPTGTSLTFGGIAMSPGYTADASSLAWLGRRLASHGFVVLVINTNSRFDGPDSRASQLSAALNYLRTSSPSAVRARLDANRLAVAGHSMGGGGTLRIAEQNPSLKAAVPLTPWHTDKTFNTSVPVLIVGAEADTVAPVSQHAIPFYQNLPSTTPKVYVELCNASHIAPNSPNAAISVYTISWMKLWVDNDTRYRQFLCNVNDPALCDFRTNNRHCQ [LCC-ICCG RIP] , what is its reported PET hydrolysis product formed?
OUTPUT: 0.162

====

# PROTOCOL: PET hydrolysis product formed (TPA+MHET+BHET, UV-Vis) per mg enzyme (mmol/mg enzyme); higher = more PET depolymerisation activity; extreme values may be limits of the assay
# CONDITION_LABEL: PET substrate: cryPow; 70 °C; pH 7.5; 24 h
sequences and their reported PET hydrolysis product formed
Reply briefly: the number, and no unit.

Worked examples, 4 sequences total:
ADNPYQRGPDPTNASIEAATGPFAVGTQPIVGASGFGGGQIYYPTDTSQTYGAVVIVPGFISVWAQLAWLGPRLASQGFVVIGIETSTITDLPDPRGDQALAALDWATTRSPVRSRIDRTRLAAAGWSMGGGGLRRAACQRPSLKAIVGMAPWNTEKNWSCVTVPTLFFGGSSDAVASPNDHAKPFYNSITRAEKDYIELCNADHFFPTSANTTMAKYFISWLKRWVDNDTRYTQFLCPGPSTGLFAPVCASMNTCPF [CaPETaseM9] ... 0.0196
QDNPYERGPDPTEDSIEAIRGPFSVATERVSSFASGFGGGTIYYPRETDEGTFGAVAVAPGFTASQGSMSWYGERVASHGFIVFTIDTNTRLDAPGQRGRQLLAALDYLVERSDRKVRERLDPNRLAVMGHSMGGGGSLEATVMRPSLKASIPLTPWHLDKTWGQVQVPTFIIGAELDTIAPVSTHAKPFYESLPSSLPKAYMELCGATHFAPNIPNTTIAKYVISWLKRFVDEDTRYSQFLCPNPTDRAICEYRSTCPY [Cut190*SS] ... 0.031
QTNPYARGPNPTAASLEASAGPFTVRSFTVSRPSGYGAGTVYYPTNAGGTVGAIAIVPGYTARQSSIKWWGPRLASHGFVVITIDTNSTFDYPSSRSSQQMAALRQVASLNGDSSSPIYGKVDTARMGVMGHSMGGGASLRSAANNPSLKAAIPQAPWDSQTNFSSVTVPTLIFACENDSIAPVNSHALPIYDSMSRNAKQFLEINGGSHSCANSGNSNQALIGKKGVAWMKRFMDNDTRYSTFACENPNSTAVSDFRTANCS [DuraPETase] ... 0.0465
SNPYQRGPNPTRSALTADGPFSVATYTVSRLSVSGFGGGVIYYPTGTSLTFGGIAMSPGYTADASSLAWLGRRLASHGFVVLVINTNSRFDGPDSRASQLSAALNYLRTSSPSAVRARLDANRLAVAGHSMGGGGTLRIAEQNPSLKAAVPLTPWHTDKTFNTSVPVLIVGAEADTVAPVSQHAIPFYQNLPSTTPKVYVELCNASHIAPNSNNAAISVYTISWMKLWVDNDTRYRQFLCNVNDPALCDFRTNNRHCQ [LCC-ICCG] ... 0.2

INPUT: Please look up its PET hydrolysis product formed: QTNPYARGPNPTAASLEASAGPFTVRSFTVARPVGYGAGTVYYPTNAGGTVGAIAIVPGYTATQSSINWWGPRLASHGFVVITIDTNSTLDKPESRSSQQMAALRQVASLNGTSSSPIYGKVDTARGGVMGWSMGGGGSLISAANNPSLKAAAVMAPWHSSTNFSSVTVPTLIFACENDRIAPVKEYALPIYDSMSLNAKQFLEICGGSHSCACSGNSNQALIGMKGVAWMKRFMDNDTRYSQFACENPNSTAVCDFRTANCS [HotPETase]
OUTPUT: 0.094

INPUT: What PET hydrolysis product formed value was documented for this sequence, QTNPYARGPDPTAASLEASAGPFTVRSFTVSRPSGYGAGTVYYPTNAGGTVGAIAIVPGYTARQSSIKWWGPRLASHGFVVITIDTNSTLDQPESRSSQQMAALEQVASLNGTSSSPIYGKVDTARMGVMGWSMGGGGSLISACNNPSLKAAVVQAPWHSSTNFSCVTVPTLIFACENDSIAPVNSSALPIYDSMSENAKQFLEICGGSHSCANTGNSDQALIGKKGVAWMKRFMDNDTRYSTFACENPNSTRVCDFRTANCS [Z1-PETase] ?
OUTPUT: 0.0691
